# Assayed Target: human D3 dopamine receptors (Homo sapiens, UniProt P35462)
# Sequence (P35462 whole entry): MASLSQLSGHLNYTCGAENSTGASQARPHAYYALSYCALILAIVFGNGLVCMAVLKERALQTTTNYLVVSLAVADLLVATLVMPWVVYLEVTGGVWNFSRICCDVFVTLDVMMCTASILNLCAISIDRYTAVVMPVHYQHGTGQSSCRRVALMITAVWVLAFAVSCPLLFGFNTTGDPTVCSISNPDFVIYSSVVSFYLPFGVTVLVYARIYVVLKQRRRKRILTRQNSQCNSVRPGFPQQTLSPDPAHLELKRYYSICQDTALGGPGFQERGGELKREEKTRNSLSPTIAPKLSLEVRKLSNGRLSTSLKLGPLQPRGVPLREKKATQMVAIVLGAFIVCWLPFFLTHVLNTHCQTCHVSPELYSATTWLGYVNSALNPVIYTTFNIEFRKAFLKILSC
pIC50: −log10 of the molar value. Where a name gives a salt, the structure may show the parent alone.
Measured pIC50 accompanies every entry in the list below.

Example cases with answers are listed next.
[[record]]
compound = "COc1ccc(S(=O)(=O)N2CCOCC2)cc1-c1ccc(CN2CCCCC[C@@H]2c2ccccc2)[nH]1 [Example 13, oxalate]"
test_value = "7.30 to 9.00"

[[record]]
compound = "CCS(=O)(=O)c1cc(Br)c(OC)c(-c2ccc(CN3CCCCCC3c3ccccc3)[nH]2)c1 (racemic) [Example 6, hydrochloride]"
test_value = "7.30 to 9.00"

[[record]]
compound = "CCS(=O)(=O)c1ccc(OC)c(-c2ccc(CN3CCCCC[C@H]3c3ccccc3)[nH]2)c1 [Example 11, oxalate]"
test_value = "7.30 to 9.00"

[[record]]
compound = "CCS(=O)(=O)c1ccc(OC)c(-c2ccc(CN3CCCCC[C@@H]3c3ccccc3)[nH]2)c1 [Example 10, oxalate]"
test_value = "7.30 to 9.00"


Alright, here's another compound for you.
Specify pIC50 for CCS(=O)(=O)c1ccc(OC)c(-c2ccc(CN3CCCCCC3c3ccccc3)[nH]2)c1 (racemic) [Example 3, hydrochloride] and stop.
7.30 to 9.00

The values you see were collected from patent EP0705259B1.
